The values you see were collected from patent US20140323501A1.

# System: SD rat peripheral blood lymphocyte counts
# experiment.description: Effect of S1P1 receptor agonists on rat vein (peripheral) blood lymphocyte counts
# Format: in vivo
# test.context: Table 1; 10 mg/Kg intragastric; 12 h after administration
assay.endpoint: LYM 12 h

[[record]]
compound = "CCCCc1ccc(Oc2ccc(CCC(N)(CO)CO)cc2)cc1 [Syl926]"
tgt = "SD rat peripheral blood lymphocyte counts"
assay_endpoint = "LYM 12 h"
result = "1.33 ± 0.42 × 10^9/L"

[[record]]
compound = "CCCCCCCCc1ccc(CCC(N)(CO)CO)cc1 [FTY720, reference compound]"
tgt = "SD rat peripheral blood lymphocyte counts"
assay_endpoint = "LYM 12 h"
result = "1.00 ± 0.00 × 10^9/L"

[[record]]
compound = "CC(C)c1nc(-c2ccc(Oc3ccc(CCC(N)(CO)CO)cc3)cc2)co1 [Syl935]"
tgt = "SD rat peripheral blood lymphocyte counts"
assay_endpoint = "LYM 12 h"
result = "1.17 ± 0.31 × 10^9/L"

[[record]]
compound = "CCc1nc(-c2ccc(Oc3ccc(CCC(N)(CO)CO)cc3)cc2)co1 [Syl934]"
tgt = "SD rat peripheral blood lymphocyte counts"
assay_endpoint = "LYM 12 h"
result = "1.17 ± 0.49 × 10^9/L"

